B1: TRIM43 (parent)
chain: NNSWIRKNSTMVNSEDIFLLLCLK

# Variants of: B1
# protocol: protein stability index of a GFP-peptide fusion (GPS, HEK-293T) (PSI 1-6); higher = more stable;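 also: lentivirally expressed fusions sorted by FACS into six bins by GFP to DsRed ratio, PSI derived from sequencing read proportions per bin multiplied by bin number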
# condition_context: c terminus: a fixed tail appended
Reported protein stability index values for a set of variants
Reply: number alone, nothing else.

Illustrative cases are given below, each with its answer.
W4D :: 2.64
N13W :: 3.07
R6A :: 2.27
L23Y :: 2.25
N2M :: 3.25

Can you share its protein stability index? I mean this variant: C22P
2.44

Query R6N next
3.63

Query I17V next
2.24
